Experimental System: recombinant SARS-CoV-2 Main protease (Mpro) (Severe acute respiratory syndrome coronavirus 2 (2019-nCoV) (SARS-CoV-2), UniProt P0DTD1)
Protocol Notes: Cov Mpro Biochemical IC50 Assay
Test Context: recombinant SARS-CoV-2 Mpro 7.5 nM, fluorogenic peptide substrate 40 μM; read-out: MPro IC50
Observable: pIC50
// returns pIC50 (minus log10 of molar concentration), number only

COc1cc(-c2cc3c(s2)c(=O)n(-c2c(C)ccnc2F)c(=O)n3CCC#N)c(Cl)cc1F [Example 916] : 7.94
COc1cc(-c2cc3[nH]c(=O)n(-c4cncc5cnn(C6CC6)c45)c(=O)c3s2)c(Cl)cc1F [Example 975] : 8.20
COc1cc(-c2cc3[nH]c(=O)n(-c4cncc5c4c(C)nn5C)c(=O)c3s2)c(Cl)cc1F [Example 752] : 8.16

Exercise: Name the recorded pIC50 for Cc1nnc2n1CCN(c1ccc3cncc(-n4c(=O)[nH]c5cc(-c6ccccc6Cl)sc5c4=O)c3c1)C2 [Example 396] .
Key: 7.83

Exercise: Name the recorded pIC50 for COc1cc(-c2cc3c(s2)c(=O)n(-c2cncc4nnn(C)c24)c(=O)n3CCC#N)c(Cl)cc1F (single isomer, unassigned) [Example 1059] .
Key: 7.35

Exercise: Name the recorded pIC50 for COc1ccc(Cl)c(-c2cc3[nH]c(=O)n(-c4cncc5ccc(N6CCC(F)(F)C6)cc45)c(=O)c3s2)c1 [Example 414] .
Key: 8.12

Exercise: Name the recorded pIC50 for COc1cc(-c2cc3c(s2)c(=O)n(-c2cncc4cnn(C)c24)c(=O)n3CCC#N)c(C#N)cc1F (single isomer, unassigned) [Example 1003] .
Key: 8.55
